- System: MCF7 breast
- PROTOCOL_DETAILS: NCI-60 one-dose screen, 48 h
- CONDITION: 10 µM unless noted
The panel holds about 83,000 compounds, 20% with a hit somewhere; the sample as a whole holds those more often. Active and inactive are the calls of the source. How the source made its calls: active means growth percent below 10; inactive means the rest.
Write down the outcome that applies. Available outcomes: active, inactive

Recorded results for 4 compounds are shown here.
>  <COMPOUND>
Nc1c(C(=O)Nc2ccccn2)sc2nc3c(cc12)CCCCCC3

>  <CLASS_ASSIGNMENT>
inactive

$$$$
>  <COMPOUND>
COC(=O)/C=C/c1cc(OC(C)=O)c2c(c1)C(C(=O)OC)C(c1ccc(OC(C)=O)c(OC(C)=O)c1)O2 (stereo not given)

>  <CLASS_ASSIGNMENT>
inactive

$$$$
>  <COMPOUND>
O=C1NN(c2ccccc2)C(c2ccc3c(c2)OCO3)N2CCC[C@@H]12 (stereo not given in full)

>  <CLASS_ASSIGNMENT>
inactive

$$$$
>  <COMPOUND>
C=C(C)[C@@H]1CC[C@]2(C(=O)OCCCC[P+](c3ccccc3)(c3ccccc3)c3ccccc3)CC[C@]3(C)[C@H](CC[C@@H]4[C@@]5(C)CC[C@H](OC(=O)C(Cl)Cl)C(C)(C)[C@@H]5CC[C@]43C)[C@@H]12

>  <CLASS_ASSIGNMENT>
active

$$$$

Tell me the recorded outcome of this test for "COc1ccc(N(C)c2nc(Cl)nc3ccn(C)c23)cc1" . inactive

Tell me the recorded outcome of this test for "COc1ccc(NC(=O)c2ccc(Nc3ncnc4[nH]c(C)c(C)c34)cc2)cc1" . inactive

Tell me the recorded outcome of this test for "O=C1Nc2ccc(Br)cc2/C1=N\N=C/c1cn(Cc2ccccc2)c2ccccc12" . inactive

Tell me the recorded outcome of this test for "COc1ccc(Sc2[nH]c(C(C)=O)c3ccccc23)cc1" . inactive

Tell me the recorded outcome of this test for "Cc1nc(C)c(C)nc1C" . inactive

Tell me the recorded outcome of this test for CC(=O)Nc1c(C(=O)Nc2ccccc2)sc2nc3c(cc12)C(OC(C)=O)CCC3 (stereo not given) . inactive

Cited source for all entries: PubChem BioAssay (NCI)
